Measured values drawn from patent US20250346606A1 for this set.

System: NCI-H358 cells
Protocol Summary: Inhibitory effect of compounds on NCI-H358 cell proliferation
Type: cell-based, Human
Condition Notes: NCI-H358 human non-small cell lung cancer cells, 72 h incubation, Cell Counting-Lite 2.0; read-out: IC50, inhibitory activity on NCI-H358 cell proliferation
Item-by-item account of IC50

{"columns": ["Compound", "IC50"],
 "data": [
  ["CC[C@@]1(O)C(=O)OCc2c1cc1n(c2=O)Cc2c-1nc1cc(F)c(Cl)c3c1c2[C@@H](NC(=O)C1(O)CC1)CC3", "13.3 nM"],
  ["C=C[C@@H](O)C(=O)N[C@H]1CCc2c(C)c(F)cc3nc4c(c1c23)Cn1c-4cc2c(c1=O)COC(=O)[C@]2(O)CC", "51.5 nM"],
  ["CC[C@@]1(O)C(=O)OCc2c1cc1n(c2=O)Cc2c-1nc1cc(F)c(C3CC3)c3c1c2[C@@H](NC(=O)CO)CC3", "29.9 nM"],
  ["C=C[C@H](O)C(=O)N[C@H]1CCc2c(C)c(F)cc3nc4c(c1c23)Cn1c-4cc2c(c1=O)COC(=O)[C@]2(O)CC", "11.4 nM"],
  ["CC[C@@]1(O)C(=O)OCc2c1cc1n(c2=O)Cc2c-1nc1cc(F)c(C)c3c1c2[C@@](C)(N)CC3 (single isomer, unassigned)", "7.01 nM"],
  ["CC[C@@]1(O)C(=O)OCc2c1cc1n(c2=O)Cc2c-1nc1cc(Cl)c(C)c3c1c2[C@@H](NC[C@@H](C)O)CC3", "56.5 nM"]
]}

----------
Test system: HT29 cells
Protocol Summary: Inhibitory effect of compounds on HT29 cell proliferation
Format: cell-based, Human
Condition Notes: Homo sapiens, HT-29, 72 h, read-out: IC50, inhibitory activity on HT29 cell proliferation
pIC50: −log10 of the molar value.
Property Measured: pIC50

{"columns": ["Compound", "Target", "Property Measured", "Val"],
 "data": [
  ["CC[C@@]1(O)C(=O)OCc2c1cc1n(c2=O)Cc2c-1nc1cc(F)c(C)c3c1c2[C@H](CN)CC3 (single isomer, unassigned)", "HT29 cells", "pIC50", 8.33],
  ["CC[C@@]1(O)C(=O)OCc2c1cc1n(c2=O)Cc2c-1nc1cc(Cl)c(C)c3c1c2[C@@H](NC(=O)C1(O)CC1)CC3", "HT29 cells", "pIC50", 8.89],
  ["CC[C@@]1(O)C(=O)OCc2c1cc1n(c2=O)Cc2c-1nc1cc(F)c(C)c3c1c2[C@@](C)(NC(=O)C1(O)CC1)CC3 (single isomer, unassigned)", "HT29 cells", "pIC50", 8.41],
  ["CC[C@@]1(O)C(=O)OCc2c1cc1n(c2=O)Cc2c-1nc1cc(F)c(C)c3c1c2[C@@H](CN)CC3 (single isomer, unassigned)", "HT29 cells", "pIC50", 8.50],
  ["CC[C@@]1(O)C(=O)OCc2c1cc1n(c2=O)Cc2c-1nc1cc3c(cc1c2CCNC1CC1)OCO3", "HT29 cells", "pIC50", 9.25],
  ["CC[C@@]1(O)C(=O)OCc2c1cc1n(c2=O)Cc2c-1nc1cc(F)c(Cl)c3c1c2[C@@H](N)CC3 (single isomer, unassigned)", "HT29 cells", "pIC50", 9.80],
  ["CC[C@@]1(O)C(=O)OCc2c1cc1n(c2=O)Cc2c-1nc1cc(F)c(Cl)c3c1c2[C@H](N)CC3 (single isomer, unassigned)", "HT29 cells", "pIC50", 9.15],
  ["CC[C@@]1(O)C(=O)OCc2c1cc1n(c2=O)Cc2c-1nc1cc(Cl)c(C)c3c1c2[C@H](NC(=O)C1(O)CC1)CC3", "HT29 cells", "pIC50", 8.39],
  ["CC[C@@]1(O)C(=O)OCc2c1cc1n(c2=O)Cc2c-1nc1cc(Cl)c(C)c3c1c2[C@H](NC(=O)[C@H](O)C1CC1)CC3", "HT29 cells", "pIC50", 8.48],
  ["CC[C@@]1(O)C(=O)OCc2c1cc1n(c2=O)Cc2c-1nc1cc(Cl)c(C)c3c1c2[C@@H](NC(=O)CO)CC3", "HT29 cells", "pIC50", 8.30],
  ["CC[C@@]1(O)C(=O)OCc2c1cc1n(c2=O)Cc2c-1nc1cc(Cl)c(C)c3c1c2[C@H](NC[C@H](C)O)CC3", "HT29 cells", "pIC50", 8.26],
  ["CC[C@@]1(O)C(=O)OCc2c1cc1n(c2=O)Cc2c-1nc1cc(Cl)c(C)c3c1c2[C@H](NCC(C)(C)O)CC3", "HT29 cells", "pIC50", 8.80],
  ["CC[C@@]1(O)C(=O)OCc2c1cc1n(c2=O)Cc2c-1nc1cc(F)c(C)c3c1c2[C@@H](NC(=O)[C@@H](O)CN(C)C)CC3 (single isomer, unassigned)", "HT29 cells", "pIC50", 7.99],
  ["CC[C@@]1(O)C(=O)OCc2c1cc1n(c2=O)Cc2c-1nc1cc(Cl)c(C)c3c1c2[C@@H](NC(=O)[C@@H](O)C1CC1)CC3", "HT29 cells", "pIC50", 8.52],
  ["CC[C@@]1(O)C(=O)OCc2c1cc1n(c2=O)Cc2c-1nc1cc(Cl)c(C)c3c1c2[C@H](NC(=O)CO)CC3", "HT29 cells", "pIC50", 8.12],
  ["CC[C@@]1(O)C(=O)OCc2c1cc1n(c2=O)Cc2c-1nc1cc(F)c(C)c3c1c2[C@@H](NC(=O)[C@H](O)CN(C)C)CC3 (single isomer, unassigned)", "HT29 cells", "pIC50", 7.21],
  ["CC[C@@]1(O)C(=O)OCc2c1cc1n(c2=O)Cc2c-1nc1cc(Cl)c(C)c3c1c2[C@@H](NC(=O)[C@H](O)C1CC1)CC3", "HT29 cells", "pIC50", 8.83],
  ["CC[C@@]1(O)C(=O)OCc2c1cc1n(c2=O)Cc2c-1nc1cc(Cl)c(C)c3c1c2[C@@H](NCC(C)(C)O)CC3", "HT29 cells", "pIC50", 8.91],
  ["CC#C[C@H](O)C(=O)N[C@H]1CCc2c(C)c(F)cc3nc4c(c1c23)Cn1c-4cc2c(c1=O)COC(=O)[C@]2(O)CC", "HT29 cells", "pIC50", 8.81],
  ["CC[C@@]1(O)C(=O)OCc2c1cc1n(c2=O)Cc2c-1nc1cc3c(cc1c2CCNCCOC)OCO3", "HT29 cells", "pIC50", 8.28],
  ["CC#C[C@@H](O)C(=O)N[C@H]1CCc2c(C)c(F)cc3nc4c(c1c23)Cn1c-4cc2c(c1=O)COC(=O)[C@]2(O)CC", "HT29 cells", "pIC50", 8.89],
  ["CC[C@@]1(O)C(=O)OCc2c1cc1n(c2=O)Cc2c-1nc1cc(Cl)c(C)c3c1c2[C@H](NC(=O)[C@@H](O)C1CC1)CC3", "HT29 cells", "pIC50", 8.63]
]}
